Biological target: T1, LIG-34+ meganuclease (Artificial Sequence (derived from …))
T1 chain: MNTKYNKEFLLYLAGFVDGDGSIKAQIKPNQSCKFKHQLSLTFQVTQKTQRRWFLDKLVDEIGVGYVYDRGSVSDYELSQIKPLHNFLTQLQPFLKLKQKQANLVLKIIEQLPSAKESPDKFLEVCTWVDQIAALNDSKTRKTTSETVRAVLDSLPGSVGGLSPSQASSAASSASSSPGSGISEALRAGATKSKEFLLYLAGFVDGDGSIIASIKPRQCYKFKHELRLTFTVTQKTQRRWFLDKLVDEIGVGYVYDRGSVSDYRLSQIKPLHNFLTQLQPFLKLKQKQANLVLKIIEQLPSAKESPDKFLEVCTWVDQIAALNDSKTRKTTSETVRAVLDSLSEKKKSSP
Assay: cleavage_in_vitro; C50, enzyme to cut 50% of 10 nM linearized pUC19 substrate in 1 h; 37 C, SA buffer pH 8.0, 100 mM NaCl, 5 mM MgCl2, 5 mM EDTA
Conditions: tags: C-terminal 6xHis; N-terminal SV40 NLS; inferred)
assay_metric: EC50

Query LIG-34 recognition site (dsDNA) DNA 1: TACGCGTACGTGTGAGGTATAT DNA 2: ATATACCTCACACGTACGCGTA yields EC50 of ~13 nM
